Data origin, for the record: PubChem BioAssay

system tested: Torsin-1A-interacting protein 1 (Homo sapiens)
protocol text: LAP1 binders from COS7 cell lysate, primary screen, small-molecule microarray, 635/667 nm fluorescence (AID 1116)
condition: COS7-hLAP1 lysate binding, 635 nm fluorescence, higher = more signal
readout kind: composite z-score
Answers are plain numbers.

Worked set:
C=CC[C@]1(C(=O)OC)N=C(c2ccc(OCCCO)cc2)O[C@H]1c1ccccc1CN=[N+]=[N-]
0.782
O=C(CS)NCCCCCNC(=O)[C@H]1C[C@H]2C(=O)N[C@@H](Cc3ccccc3)C(=O)N2[C@H]1c1ccc(O)cc1
0.792

Now turn to the next molecule.
Suppose we examine the molecule `CC(=O)NCCCC[C@@H]1NC(=O)[C@@H]2C[C@H](C(=O)NCCCCCNC(=O)CS)[C@H](c3ccc(O)cc3)N2C1=O` ; what composite z-score value has been reported?
0.0502
